test: Volume of distribution at steady state in Sprague-Dawley rat plasma at 1 mg/kg, iv by UPLC-MS/MS analysis; assay type: ADME, organism-based; conditions: read-out: Vdss
Entries and their measured Vd follow.
# include the unit after the value

COMPOUND	Vd
CC(c1cc2cc(-c3cnn(C)c3)cnc2cc1F)n1nnc2ncc(-c3ccc(C(N)=O)c(F)c3)nc21 (configuration not stated)	2 L/kg

Proceed to the following item.
The recorded Vd for entry CC(c1cc2cc(-c3cnn(C)c3)cnc2cc1F)n1nnc2ncc(-c3cnn(CCO)c3)nc21 (stereo in doubt; 14) equals 2.1 L/kg

====

assay: Intrinsic clearance in rat liver microsomes assessed per mg protein at 1 uM preincubated for 5 mins followed by NADPH addition measured after 5 to 30 mins by LC-MS/MS analysis; assay type: ADME, microsome; conditions: read-out: CLH
METRIC NAME: microsomal CLint at 1 µM (µL/min/mg)
Hi! Could you send only the number? It should be in µL/min/mg, unit omitted.

# annotated cases, reported microsomal CLint at 1 µM shown
COMPOUND	microsomal CLint at 1 µM, µL/min/mg
CC(c1cc2cc(-c3cnn(C)c3)cnc2cc1F)n1nnc2ncc(-c3cnn(CCO)c3)nc21 (stereo in doubt; 14)	5
CC(c1ccc2ncc(-c3cnn(C)c3)cc2c1)n1nnc2ncc(-c3cnn(CCO)c3)nc21 (centres undefined)	6
CC(c1ccc2ncc(-c3ccc(F)cc3)cc2c1)n1nnc2ncc(-c3cnn(C)c3)nc21 (centres undefined)	28
CC(c1c(F)cc2ncc(-c3cnn(C)c3)cc2c1F)n1nnc2ncc(-c3ccncc3)nc21 (centres undefined)	26
CC(c1c(F)cc2ncc(-c3cnn(C)c3)cc2c1F)n1nnc2ncc(-c3cnn(CCO)c3)nc21 (centres undefined)	20
CC(c1ccc2ncc(-c3cnn(C)c3)cc2c1)n1nnc2ncc(-c3cnn(C)c3)nc21 (centres undefined)	22
CNC(=O)c1ccc(-c2cnc3nnn(C(C)c4c(F)cc5ncc(-c6cnn(C)c6)cc5c4F)c3n2)cc1F (centres undefined)	48
CC(c1c(F)cc2ncc(-c3cnn(C)c3)cc2c1F)n1nnc2ncc(-c3cnn(C)c3)nc21 (centres undefined)	22
CC(c1ccc2ncc(-c3ccc(F)cc3)cc2c1)n1nnc2ncc(-c3ccncc3)nc21 (centres undefined)	56
CC(c1cc2cc(-c3cnn(C)c3)cnc2cc1F)n1nnc2ncc(-c3ccc(C(N)=O)c(F)c3)nc21 (centres undefined)	1

The recorded microsomal CLint at 1 µM for entry CNC(=O)c1ccc(-c2cnc3nnn(C(C)c4cc5cc(-c6cnn(C)c6)cnc5cc4F)c3n2)cc1F (centres undefined) equals 12

The recorded microsomal CLint at 1 µM for entry `C[C@@H](c1cc2cccnc2cc1F)n1cnc2ncc(-c3cnn(C)c3)nc21` equals 49

The recorded microsomal CLint at 1 µM for entry CNC(=O)c1ccc(-c2cnc3nnn(C(C)c4ccc5ncc(-c6cnn(C)c6)cc5c4)c3n2)cc1F (centres undefined) equals 5

The recorded microsomal CLint at 1 µM for entry CC(c1cc2cc(-c3cnn(C)c3)cnc2cc1F)n1nnc2ncc(-c3ccncc3)nc21 (centres undefined) equals 55

====

Entries and their measured clearance follow.
test: Clearance in Sprague-Dawley rat plasma at 1 mg/kg, iv by UPLC-MS/MS analysis; type: ADME, organism-based
Hi! Could you send only the number? It should be in mL/min/kg, unit omitted.

MOLECULE	clearance / mL/min/kg
CC(c1cc2cc(-c3cnn(C)c3)cnc2cc1F)n1nnc2ncc(-c3cnn(CCO)c3)nc21 (stereo in doubt; 14)	9.67

Proceed to the following item.
The recorded clearance for entry CC(c1cc2cc(-c3cnn(C)c3)cnc2cc1F)n1nnc2ncc(-c3ccc(C(N)=O)c(F)c3)nc21 (configuration not stated) equals 9.33

====

test: Drug recovery in monkey liver microsomes at 1 uM measured after 30 mins by LC-MS/MS analysis
In plain terms, low remaining at 0.5 h, 1 µM, meaning strictly below 90%, gives TRUE, and everything else gives FALSE.

COMPOUND	LABEL CLASS
CC(c1ccc2ncc(-c3cnn(C)c3)cc2c1)n1nnc2ncc(-c3cnn(C)c3)nc21 (centres undefined)	TRUE
CNC(=O)c1ccc(-c2cnc3nnn(C(C)c4c(F)cc5ncc(-c6cnn(C)c6)cc5c4F)c3n2)cc1F (centres undefined)	FALSE
CC(c1ccc2ncc(-c3ccc(F)cc3)cc2c1)n1nnc2ncc(-c3ccncc3)nc21 (centres undefined)	FALSE
CNC(=O)c1ccc(-c2cnc3nnn(C(C)c4cc5cc(-c6cnn(C)c6)cnc5cc4F)c3n2)cc1F (centres undefined)	TRUE
CC(c1c(F)cc2ncc(-c3cnn(C)c3)cc2c1F)n1nnc2ncc(-c3cnn(CCO)c3)nc21 (centres undefined)	FALSE

Exercise: Say whether its remaining at 0.5 h, 1 µM is strictly beneath 90%. Entry: CC(c1c(F)cc2ncc(-c3cnn(C)c3)cc2c1F)n1nnc2ncc(-c3cnn(C)c3)nc21 (centres undefined)
Key: TRUE

Exercise: Say whether its remaining at 0.5 h, 1 µM is strictly beneath 90%. Entry: `C[C@@H](c1cc2cccnc2cc1F)n1cnc2ncc(-c3cnn(C)c3)nc21`
Key: TRUE

Exercise: Say whether its remaining at 0.5 h, 1 µM is strictly beneath 90%. Entry: CC(c1cc2cc(-c3cnn(C)c3)cnc2cc1F)n1nnc2ncc(-c3ccc(C(N)=O)c(F)c3)nc21 (centres undefined)
Key: FALSE

====

Entries and their measured pIC50 follow.
tested on: NCI-H1993; assay: Growth inhibition of human NCI-H1993 cells after 72 hrs by CCK-8 assay; format: functional, cell-based; details: Homo sapiens, NCI-H1993, 72 h
Please keep in mind that pIC50 is minus log10 of the molar concentration; only the number is needed.

# annotated cases, reported pIC50 shown
COMPOUND	METRIC NAME	RECORDED MEASUREMENT
CC(c1ccc2ncc(-c3cnn(C)c3)cc2c1)n1nnc2ncc(-c3ccncc3)nc21 (configuration not stated)	pIC50	9.05
CC(c1c(F)cc2ncc(-c3cnn(C)c3)cc2c1F)n1nnc2ncc(-c3ccncc3)nc21 (configuration not stated)	pIC50	9.70
CC(c1cc2cc(-c3cnn(C)c3)cnc2cc1F)n1nnc2ncc(-c3cnn(CCO)c3)nc21 (single isomer, unassigned; enantiomer 2)	pIC50	9.22

The recorded pIC50 for entry CC(c1c(F)cc2ncc(-c3ccc(F)cc3)cc2c1F)n1nnc2ncc(-c3cnn(C)c3)nc21 (configuration not stated) equals 8.59

The recorded pIC50 for entry CC(c1ccc2ncc(-c3ccc(F)cc3)cc2c1)n1nnc2ncc(-c3cnn(C)c3)nc21 (configuration not stated) equals 8.92

The recorded pIC50 for entry CC(c1ccc2ncc(-c3ccc(F)cc3)cc2c1)n1nnc2ncc(-c3ccncc3)nc21 (configuration not stated) equals 8.06

====

assay: Intrinsic clearance in human liver microsomes assessed per mg protein at 1 uM preincubated for 5 mins followed by NADPH addition measured after 5 to 30 mins by LC-MS/MS analysis; format: ADME, microsome; conditions: read-out: CLH
Entries and their measured log10 microsomal CLint at 1 µM follow.
Answers are given as log10 of microsomal CLint at 1 µM in µL/min/mg.

The recorded log10 microsomal CLint at 1 µM for entry CC(c1ccc2ncc(-c3ccc(F)cc3)cc2c1)n1nnc2ncc(-c3cnn(C)c3)nc21 (centres undefined) equals 1.20

The recorded log10 microsomal CLint at 1 µM for entry CNC(=O)c1ccc(-c2cnc3nnn(C(C)c4ccc5ncc(-c6cnn(C)c6)cc5c4)c3n2)cc1F (centres undefined) equals 0.00

The recorded log10 microsomal CLint at 1 µM for entry CC(c1c(F)cc2ncc(-c3cnn(C)c3)cc2c1F)n1nnc2ncc(-c3ccc(C(N)=O)c(F)c3)nc21 (centres undefined) equals 1.04

The recorded log10 microsomal CLint at 1 µM for entry `C[C@@H](c1cc2cccnc2cc1F)n1cnc2ncc(-c3cnn(C)c3)nc21` equals 0.90

The recorded log10 microsomal CLint at 1 µM for entry CC(c1cc2cc(-c3cnn(C)c3)cnc2cc1F)n1nnc2ncc(-c3cnn(CCO)c3)nc21 (stereo in doubt; 14) equals 0.70

The recorded log10 microsomal CLint at 1 µM for entry CNC(=O)c1ccc(-c2cnc3nnn(C(C)c4ccc5ncc(-c6ccc(F)cc6)cc5c4)c3n2)cc1F (centres undefined) equals 1.18

The recorded log10 microsomal CLint at 1 µM for entry CNC(=O)c1ccc(-c2cnc3nnn(C(C)c4c(F)cc5ncc(-c6cnn(C)c6)cc5c4F)c3n2)cc1F (centres undefined) equals 0.70

The recorded log10 microsomal CLint at 1 µM for entry CC(c1cc2cc(-c3cnn(C)c3)cnc2cc1F)n1nnc2ncc(-c3ccncc3)nc21 (centres undefined) equals 0.60

The recorded log10 microsomal CLint at 1 µM for entry CC(c1c(F)cc2ncc(-c3cnn(C)c3)cc2c1F)n1nnc2ncc(-c3ccncc3)nc21 (centres undefined) equals 0.95

====

assay: Drug recovery in rat liver microsomes at 1 uM measured after 30 mins by LC-MS/MS analysis; type: ADME, microsome; details: liver microsomes, read-out: Drug recovery
Entries and their measured remaining at 0.5 h, 1 µM follow.
Hi! Could you send only the number? It should be in %, unit omitted.

# annotated cases, reported remaining at 0.5 h, 1 µM shown
COMPOUND	RECORDED MEASUREMENT
CNC(=O)c1ccc(-c2cnc3nnn(C(C)c4c(F)cc5ncc(-c6cnn(C)c6)cc5c4F)c3n2)cc1F (configuration not stated)	95
CC(c1cc2cc(-c3cnn(C)c3)cnc2cc1F)n1nnc2ncc(-c3ccncc3)nc21 (configuration not stated)	106
CNC(=O)c1ccc(-c2cnc3nnn(C(C)c4ccc5ncc(-c6ccc(F)cc6)cc5c4)c3n2)cc1F (configuration not stated)	97
CC(c1c(F)cc2ncc(-c3cnn(C)c3)cc2c1F)n1nnc2ncc(-c3ccc(C(N)=O)c(F)c3)nc21 (configuration not stated)	94

The recorded remaining at 0.5 h, 1 µM for entry CNC(=O)c1ccc(-c2cnc3nnn(C(C)c4ccc5ncc(-c6cnn(C)c6)cc5c4)c3n2)cc1F (configuration not stated) equals 114

The recorded remaining at 0.5 h, 1 µM for entry CC(c1c(F)cc2ncc(-c3cnn(C)c3)cc2c1F)n1nnc2ncc(-c3cnn(CCO)c3)nc21 (configuration not stated) equals 97
